These data points were gathered from ChEMBL document CHEMBL3817745.

Recorded MIC by entry
- System: Staphylococcus aureus
- EXPERIMENT SUMMARY: Antibacterial activity against methicillin-susceptible Staphylococcus aureus ATCC 29213 incubated for 16 to 20 hrs by microdilution method
- Assay type: functional
MEASURED METRIC: MIC

QUERY SMILES	OBSERVED
N#Cc1ccc(/C=C/c2nc3ccccc3c(=O)n2-c2cccc(C(=O)NCCO)c2)cc1	1 µg/mL
O=c1c2ccccc2nc(/C=C/c2ccc(Cl)cc2)n1-c1cccc(O)c1	0.125 µg/mL
CCc1ccc(/C=C/c2nc3ccccc3c(=O)n2-c2cccc(O)c2)cc1	0.5 µg/mL
O=c1c2ccccc2nc(Cc2ccccc2)n1-c1cccc(O)c1	32 µg/mL
Cc1ccc(-c2nc3ccccc3c(=O)n2-c2cccc(O)c2)cc1	128 µg/mL
CC(=O)Nc1cccc(-n2c(/C=C/c3ccc(F)cc3)nc3ccccc3c2=O)c1	1 µg/mL
CS(=O)(=O)Nc1cccc(-n2c(/C=C/c3ccc(C#N)cc3)nc3ccccc3c2=O)c1	0.004 µg/mL
O=c1c2ccccc2nc(CCc2ccccc2)n1-c1cccc(O)c1	0.06 µg/mL
N#Cc1ccc(/C=C/c2nc3cc([N+](=O)[O-])ccc3c(=O)n2-c2cccc(C(=O)O)c2)cc1	64 µg/mL
O=c1c2ccccc2nc(/C=C/c2ccco2)n1-c1cccc(O)c1	128 µg/mL
Nc1ccc(/C=C/c2nc3ccccc3c(=O)n2-c2cccc(O)c2)cc1	16 µg/mL
O=c1c2ccccc2nc(/C=C/c2ccccc2F)n1-c1cccc(O)c1	1 µg/mL
O=c1c2ccccc2nc(/C=C/c2ccccc2)n1-c1cccc(O)c1	0.5 µg/mL
C#Cc1ccc(/C=C/c2nc3ccccc3c(=O)n2-c2cccc(O)c2)cc1	0.003 µg/mL
CC(=O)Nc1cccc(-n2c(/C=C/c3ccc(C#N)cc3)nc3ccccc3c2=O)c1	0.25 µg/mL
COc1ccc(/C=C/c2nc3ccccc3c(=O)n2-c2cccc(O)c2)cc1	4 µg/mL
CC(=O)NCc1cccc(-n2c(/C=C/c3ccc(C#N)cc3)nc3ccccc3c2=O)c1	0.015 µg/mL
O=c1c2ccccc2nc(/C=C/c2ccncc2)n1-c1cccc(O)c1	2 µg/mL
N#Cc1ccc(/C=C/c2nc3cc(C(=O)O)ccc3c(=O)n2-c2cccc(C(=O)O)c2)cc1	128 µg/mL
N#Cc1ccc(/C=C/c2nc3ccccc3c(=O)n2-c2cccc(N)c2)cc1	0.5 µg/mL
O=C(O)c1cccc(-n2c(/C=C/c3ccc(F)cc3)nc3ccccc3c2=O)c1	1 µg/mL
C#Cc1ccc(/C=C/c2nc3ccccc3c(=O)n2-c2cccc(C(=O)O)c2)cc1	0.03 µg/mL
O=c1c2ccccc2nc(/C=C/c2ccc(C(F)(F)F)cc2)n1-c1cccc(O)c1	128 µg/mL
O=c1c2ccccc2nc(/C=C/c2ccccc2[N+](=O)[O-])n1-c1cccc(O)c1	128 µg/mL
O=C(O)c1ccc(/C=C/c2nc3ccccc3c(=O)n2-c2cccc(O)c2)cc1	> 128 µg/mL
N#Cc1ccc(/C=C/c2nc3ccccc3c(=O)n2-c2cccc(O)c2)cc1	0.03 µg/mL
O=c1c2ccccc2nc(/C=C/c2ccc(F)cc2)n1-c1cccc(O)c1	0.25 µg/mL
O=c1c2ccccc2nc(/C=C/c2ccc(O)cc2)n1-c1cccc(O)c1	> 128 µg/mL
O=c1c2ccccc2nc(/C=C/c2ccc3c(c2)OCO3)n1-c1cccc(O)c1	2 µg/mL
CS(=O)(=O)Nc1cccc(-n2c(/C=C/c3ccc(F)cc3)nc3ccccc3c2=O)c1	0.125 µg/mL
